Cited source: ChEMBL document CHEMBL4513146

# Test system: Candida albicans
# Reported conditions: Concentration 32 ug.mL-1; ASSAY_TEST Inhibition of Fungal Growth; detection method Absorption (OD530)
# Description: Antifungal activity against Candida albicans ATCC 90028 (CO-ADD:FG_001); MIC in YNB media using NBS plates, by OD630
Entries with a potency or affinity are not part of this list.
// Inhibition lookup, one value per entry
Number first, unit second.

1. Cc1cccc(NC(=O)Cn2nc3ccc(-c4ccc(Cl)cc4)nn3c2=O)c1C	0.72%
2. CCCn1c(=O)c2sccc2n2c(=O)n(CC(=O)c3ccccc3)nc12	4.43%
3. CCOc1ccccc1NC(=O)Cn1nc2c(Oc3ccccc3)nccn2c1=O	2.77%
4. Cc1cc(C)cc(Oc2nc3ccccc3n3c(=O)n(CC(=O)Nc4ccc5c(c4)OCO5)nc23)c1	46.24%
5. O=C(Cn1nc2c(N3CCSCC3)nc3ccccc3n2c1=O)Nc1ccc(Br)cc1	11.24%
6. CN(C(=O)Cn1nc2n(Cc3cccs3)c(=O)c3sccc3n2c1=O)c1ccccc1	0.01%
7. CCc1nnc2c(SCC(=O)Nc3cccc(OC)c3)nc3ccccc3n12	3.37%
8. O=C(Cn1nc2c3cc(-c4ccc(F)cc4)nn3ccn2c1=O)Nc1ccc(Br)cc1	14.76%
9. COc1cccc(CSc2nnc3c(=O)n(-c4ccccc4OC)ccn23)c1	1.36%

# ---- query molecule ----
QUERY: // Input: CCc1cccc(NC(=O)Cn2nc3c(Sc4ccc(C)cc4C)nccn3c2=O)c1 . Output its Inhibition only.
RESULT: 5.97%

* * *

# Tested on: Candida albicans
# Reported conditions: Concentration 32 ug.mL-1; ASSAY_TEST Inhibition of Fungal Growth; detection method Absorption (OD530)
Entries with a potency or affinity are not part of this list.
// Inhibition lookup, one value per entry
Report as a plain number; the unit % is understood.

QUERY: // Input: CCCN(C)c1nccn2c(=O)n(CC(=O)Nc3cccc(C(C)=O)c3)nc12 . Output its Inhibition only.
RESULT: 2.07

QUERY: // Input: CSc1cccc(NC(=O)Cn2nc3ccc(-c4ccccc4)nn3c2=O)c1 . Output its Inhibition only.
RESULT: 3.96

* * *

# Tested on: Klebsiella pneumoniae
# Reported conditions: Concentration 32 ug.mL-1;; ASSAY_TEST Inhibition of Bacterial Growth; detection method Absorption (OD600); MEDIA CAMHB; plate type 384well; NBS; CORNING #3640; time 18 hr
# Description: Antibacterial activity against Klebsiella pneumoniae MDR ATCC 70063 (CO-ADD:GN_003); MIC in CAMBH media using NBS plates, by OD(600)
Results with a measured potency or affinity are listed apart.
Quantity: Inhibition (%)
Report as a plain number; the unit % is understood.

QUERY: // Input: Cn1c(=O)c2ccc(C(=O)NC3CCCC3)cc2n2c(SCC(=O)Nc3cc(F)ccc3F)nnc12 . Output its Inhibition only.
RESULT: 7.15

QUERY: // Input: O=S(=O)(c1ccc2nncn2c1)N(Cc1ccc(Cl)cc1)c1ccc2c(c1)OCO2 . Output its Inhibition only.
RESULT: 8.29

QUERY: // Input: O=c1c2sccc2n2c(=O)n(Cc3ccc(F)cc3)nc2n1CCc1ccccc1 . Output its Inhibition only.
RESULT: 5.57

QUERY: // Input: Cc1ccc(-n2ccn3c(=O)n(Cc4cccc(Cl)c4)nc3c2=O)cc1C . Output its Inhibition only.
RESULT: 2.85

QUERY: // Input: O=S(=O)(c1ccc2nncn2c1)N(Cc1ccccc1F)c1ccc(F)c(F)c1 . Output its Inhibition only.
RESULT: -0.52

QUERY: // Input: CCOc1ccc(NC(=O)Cn2nc3ccc(SCc4ccc(Cl)cc4)nn3c2=O)cc1 . Output its Inhibition only.
RESULT: 7.43

QUERY: // Input: COc1cccc(NC(=O)Cn2nc3c(Oc4ccccc4)nccn3c2=O)c1 . Output its Inhibition only.
RESULT: -9.5

QUERY: // Input: Cc1cc(C)c(NC(=O)Cn2nc3c4cc(-c5ccc(F)cc5)nn4ccn3c2=O)c(C)c1 . Output its Inhibition only.
RESULT: 17.22

QUERY: // Input: COCCCNC(=O)CSc1nnc2c(=O)n(Cc3ccccc3F)ccn12 . Output its Inhibition only.
RESULT: 15.39

QUERY: // Input: O=c1c2nnc(SCc3ccccc3Cl)n2ccn1-c1ccc(F)c(F)c1 . Output its Inhibition only.
RESULT: 8.56

QUERY: // Input: Cc1cccc(NC(=O)Cn2nc3c4cc(-c5ccc(F)cc5)nn4ccn3c2=O)c1C . Output its Inhibition only.
RESULT: 6.39

QUERY: // Input: Cc1ccc(NC(=O)Cn2nc3ccc(SC(C)(C)C)nn3c2=O)c(Cl)c1 . Output its Inhibition only.
RESULT: 7.92

QUERY: // Input: O=C(CSc1nnc2c(=O)n(-c3ccccc3)ccn12)Nc1ccc2c(c1)OCCO2 . Output its Inhibition only.
RESULT: 7.64

QUERY: // Input: CSc1cccc(NC(=O)Cn2nc3c4c5c(sc4ncn3c2=O)CCCC5)c1 . Output its Inhibition only.
RESULT: -0.84

QUERY: // Input: O=C(Cn1nc2c3sc(N4CCCC4)nc3ncn2c1=O)Nc1ccc(F)c(Cl)c1 . Output its Inhibition only.
RESULT: 20.21

QUERY: // Input: COC(=O)c1ccc(NC(=O)Cn2nc3ccc(S(=O)(=O)c4ccccc4)nn3c2=O)cc1 . Output its Inhibition only.
RESULT: 3.88

QUERY: // Input: CCc1ccccc1Sc1nccn2c(=O)n(CC(=O)N3CCN(c4ccc(F)cc4)CC3)nc12 . Output its Inhibition only.
RESULT: 3.21

QUERY: // Input: Cc1ccc(Oc2nccn3c(=O)n(CC(=O)Nc4ccc5c(c4)OCO5)nc23)cc1 . Output its Inhibition only.
RESULT: 3.22
